Target: Fatty acid synthase (Homo sapiens, UniProt P49327)
Sequence (P49327 whole entry, the tested form may be a part): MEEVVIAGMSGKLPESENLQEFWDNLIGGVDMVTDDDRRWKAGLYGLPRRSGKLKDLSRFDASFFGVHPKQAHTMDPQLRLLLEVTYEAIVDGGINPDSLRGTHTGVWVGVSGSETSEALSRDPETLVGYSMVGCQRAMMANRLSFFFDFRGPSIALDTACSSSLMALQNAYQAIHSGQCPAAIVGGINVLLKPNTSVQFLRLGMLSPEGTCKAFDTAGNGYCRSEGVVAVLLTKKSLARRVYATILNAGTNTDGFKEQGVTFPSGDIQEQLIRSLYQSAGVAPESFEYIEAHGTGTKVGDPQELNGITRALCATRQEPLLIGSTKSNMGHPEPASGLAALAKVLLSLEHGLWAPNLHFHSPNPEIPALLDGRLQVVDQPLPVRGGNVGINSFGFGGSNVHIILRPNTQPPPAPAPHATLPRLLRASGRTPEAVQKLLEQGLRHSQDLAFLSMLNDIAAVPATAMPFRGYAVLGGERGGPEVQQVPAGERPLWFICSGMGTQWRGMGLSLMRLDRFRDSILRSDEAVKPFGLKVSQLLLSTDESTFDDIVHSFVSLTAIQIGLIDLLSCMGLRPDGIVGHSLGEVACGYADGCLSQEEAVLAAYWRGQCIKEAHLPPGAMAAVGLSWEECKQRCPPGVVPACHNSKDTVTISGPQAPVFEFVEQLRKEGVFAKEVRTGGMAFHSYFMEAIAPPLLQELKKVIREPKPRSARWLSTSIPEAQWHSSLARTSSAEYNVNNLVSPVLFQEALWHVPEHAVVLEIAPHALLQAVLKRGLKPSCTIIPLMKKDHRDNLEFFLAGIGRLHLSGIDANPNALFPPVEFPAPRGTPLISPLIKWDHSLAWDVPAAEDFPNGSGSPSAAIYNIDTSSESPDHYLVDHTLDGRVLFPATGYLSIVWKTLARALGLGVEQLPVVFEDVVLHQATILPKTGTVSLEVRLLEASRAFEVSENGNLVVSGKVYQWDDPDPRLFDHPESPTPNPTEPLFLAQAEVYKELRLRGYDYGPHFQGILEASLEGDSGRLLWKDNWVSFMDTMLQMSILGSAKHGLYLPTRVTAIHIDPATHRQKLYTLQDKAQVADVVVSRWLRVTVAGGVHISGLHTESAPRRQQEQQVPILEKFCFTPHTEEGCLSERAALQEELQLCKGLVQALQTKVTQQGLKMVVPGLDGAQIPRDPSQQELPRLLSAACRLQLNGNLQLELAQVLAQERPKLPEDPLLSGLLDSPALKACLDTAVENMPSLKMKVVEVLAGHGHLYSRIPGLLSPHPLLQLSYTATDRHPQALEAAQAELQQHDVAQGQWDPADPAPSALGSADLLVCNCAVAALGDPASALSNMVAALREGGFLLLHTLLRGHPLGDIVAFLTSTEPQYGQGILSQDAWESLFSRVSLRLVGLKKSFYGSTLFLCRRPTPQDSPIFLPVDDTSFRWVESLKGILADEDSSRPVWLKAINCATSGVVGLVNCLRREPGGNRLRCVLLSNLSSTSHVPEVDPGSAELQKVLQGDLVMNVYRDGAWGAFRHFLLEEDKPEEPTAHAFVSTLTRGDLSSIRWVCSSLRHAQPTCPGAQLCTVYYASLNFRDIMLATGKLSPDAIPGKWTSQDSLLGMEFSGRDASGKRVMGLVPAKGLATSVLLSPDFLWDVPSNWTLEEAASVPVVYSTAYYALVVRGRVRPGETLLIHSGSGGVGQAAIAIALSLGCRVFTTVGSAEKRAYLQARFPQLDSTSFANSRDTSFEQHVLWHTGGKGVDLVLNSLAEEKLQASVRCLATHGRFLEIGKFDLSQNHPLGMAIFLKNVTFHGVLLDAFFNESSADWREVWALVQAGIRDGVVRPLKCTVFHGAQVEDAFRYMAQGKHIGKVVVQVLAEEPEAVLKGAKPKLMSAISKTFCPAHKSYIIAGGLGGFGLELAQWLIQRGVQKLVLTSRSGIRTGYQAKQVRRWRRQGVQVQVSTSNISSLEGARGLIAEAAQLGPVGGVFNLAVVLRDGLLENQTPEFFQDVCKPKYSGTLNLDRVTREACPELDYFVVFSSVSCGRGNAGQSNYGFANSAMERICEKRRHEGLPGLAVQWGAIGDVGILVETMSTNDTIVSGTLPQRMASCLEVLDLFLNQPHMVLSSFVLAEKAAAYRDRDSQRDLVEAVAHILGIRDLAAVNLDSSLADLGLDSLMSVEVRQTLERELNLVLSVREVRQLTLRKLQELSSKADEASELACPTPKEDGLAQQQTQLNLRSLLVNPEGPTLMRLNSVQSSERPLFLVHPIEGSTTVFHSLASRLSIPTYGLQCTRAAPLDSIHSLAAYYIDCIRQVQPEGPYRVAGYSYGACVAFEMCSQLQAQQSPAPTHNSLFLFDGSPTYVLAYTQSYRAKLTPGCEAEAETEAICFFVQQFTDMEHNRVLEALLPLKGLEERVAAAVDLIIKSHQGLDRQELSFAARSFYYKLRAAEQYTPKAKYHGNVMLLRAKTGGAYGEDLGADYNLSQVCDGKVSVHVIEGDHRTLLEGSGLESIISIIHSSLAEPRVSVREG
Assay: FAS thioesterase domain inhibitors, dose response, biochemical, kinetic fluorescence intensity (AID 624326);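 further: rate of fluorescence rise from hydrolysis of a fluorogenic O-methyl fluorescein ester substrate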
Type: functional
The source made the active and inactive calls. No stated cut-off is given here; in the data, active = IC50 of 20 µM or less and inactive = more.
Let's look at some molecules and their measured IC50.

{"columns": ["molecule", "IC50"],
 "data": [
  ["O=C(O)/C(=C/c1ccc(Cl)c([N+](=O)[O-])c1)c1ccc(S(=O)(=O)N2CCCCC2)s1", "12.6 µM (active)"],
  ["CC(C)C(=O)Nc1nc(-c2ccc(S(=O)(=O)N3CCOCC3)cc2)cs1", "0.53 µM (active)"],
  ["O=C(CCc1ccccc1)OCC(=O)c1cccc([N+](=O)[O-])c1", "9.4 µM (active)"],
  ["O=C(COc1ccc([N+](=O)[O-])cc1)N1CCc2ccccc2C1", "3.46 µM (active)"],
  ["O=[N+]([O-])c1cccc(NC(S)=NCCc2ccccc2)c1", "9.04 µM (active)"],
  ["Cc1ccccc1CS(=O)(=O)c1nnc([C@H](Cc2ccccc2)NC(=O)OC(C)(C)C)o1", "8.22 µM (active)"],
  ["COc1ccc([C@@H]2[C@@H]3C(=O)N(C(C)(C)C)C(=O)[C@@H]3[C@]3(Cc4ccccc4)C(=O)N(c4cccc(Br)c4)C(=O)N23)cc1", "13.7 µM (active)"],
  ["CC(C)(C)NC(=O)CC1C[C@H](C(=O)N2CCOCC2)[C@@]2(CCC3CCCC3)c3[nH]c4ccccc4c3CCN2C1=O (some centres undefined)", "4.15 µM (active)"],
  ["O=C(Cn1cc(C(=O)C2CC2)c2ccccc21)NCc1ccc2c(c1)OCO2", "8.36 µM (active)"]
]}
